# SYSTEM NAME: T1, human BCMA (human, UniProt Q02223 1-54)
# T1 construct: also called huBCMA; hBCMA
# T1 sequence: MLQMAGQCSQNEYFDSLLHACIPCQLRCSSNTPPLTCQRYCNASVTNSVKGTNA
# PROCEDURE SUMMARY: SPR, immobilised IgG, 37° C
MEASURE: T½ (min)
Give a bare numeral; the unit min is implied.

Example entries and their recorded answers appear below.
L3.PY/L3.KF/H2.QL (antibody, V domains shown, IgG in the assay) VH: EVQLLESGGGLVQPGGSLRLSCAASGFTFGSYAMTWVRQAPGKGLEWVSAISGSGGNTFYADQLKGRFTISRDNSKNTLYLQMNSLRAEDTAVYYCARVSPIASGMDYWGQGTLVTVSS VL: EIVLTQSPGTLSLSPGERATLSCRASQSVSSSYLAWYQQKPGQAPRLLIYGASSRATGIPDRFSGSGSGTDFTLTISRLEPEDFAVYYCKFYPYPPSFTFGQGTKVEIK    9.26
L3.PY/L1.PS/H2.QL (antibody, V domains shown, IgG in the assay) VH: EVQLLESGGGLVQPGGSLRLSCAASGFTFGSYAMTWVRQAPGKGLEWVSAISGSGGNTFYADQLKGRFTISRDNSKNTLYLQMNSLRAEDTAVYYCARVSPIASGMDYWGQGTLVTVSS VL: EIVLTQSPGTLSLSPGERATLSCRASQSVSSSYPSWYQQKPGQAPRLLIYGASSRATGIPDRFSGSGSGTDFTLTISRLEPEDFAVYYCQHYPYPPSFTFGQGTKVEIK    0.04

Read the next record carefully.
Looking up L3.PY/L1.PS/H2.HA (antibody, V domains shown, IgG in the assay) VH: EVQLLESGGGLVQPGGSLRLSCAASGFTFGSYAMTWVRQAPGKGLEWVSAISHAGGNTFYADSVKGRFTISRDNSKNTLYLQMNSLRAEDTAVYYCARVSPIASGMDYWGQGTLVTVSS VL: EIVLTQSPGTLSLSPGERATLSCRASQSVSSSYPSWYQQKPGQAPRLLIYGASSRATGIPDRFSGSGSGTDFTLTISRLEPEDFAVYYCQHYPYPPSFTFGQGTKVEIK , I see its T½ listed as 1.09
